So I've got a bunch of compounds here, and I need their MIC90 values.
- Tested on: Mycobacterium tuberculosis
- measurement_notes: Antimycobacterial activity against multidrug resistant Mycobacterium tuberculosis KZN494 assessed as bacterial growth inhibition incubated for 7 to 14 days by MABA assay
- Type: functional
- condition_set: time 7-14 day
Expressed in µg/mL, but write only the number.

Recorded MIC90 of `CO[C@H]1/C=C/O[C@@]2(C)Oc3c(C)c(O)c4c(O)c(c(/C=N/N5CCN(C)CC5)c(O)c4c3C2=O)NC(=O)/C(C)=C\C=C\[C@H](C)[C@H](O)[C@@H](C)[C@@H](O)[C@@H](C)[C@H](OC(C)=O)[C@@H]1C` , please.
128

# iterate: `c1ccc(-c2ccc(-c3ccnc(CN4CCC5(CCCC5)CC4)c3)cc2)cc1`
0.016

Same question for `NNC(=O)c1ccncc1` please.
16

What would you report for `NC[C@H]1O[C@H](O[C@H]2[C@H](O)[C@@H](O[C@H]3O[C@H](CO)[C@@H](O)[C@H](N)[C@H]3O)[C@H](N)C[C@@H]2N)[C@H](O)[C@@H](O)[C@@H]1O` ?
2

Another compound to check: CC1COc2c(N3CCN(C)CC3)c(F)cc3c(=O)c(C(=O)O)cn1c23 (stereo not given)
0.5

----------
Field: MIC90. Provide a value for each of the molecules that follow.
- Test system: Mycobacterium tuberculosis
- measurement_notes: Antimycobacterial activity against multidrug resistant Mycobacterium tuberculosis V2475 assessed as bacterial growth inhibition incubated for 7 to 14 days by MABA assay
- Type: functional
- condition_set: time 7-14 day
Include the unit right after the number.

Return reported MIC90; argument: `NNC(=O)c1ccncc1`
16 µg/mL

Do the same for `CO[C@H]1/C=C/O[C@@]2(C)Oc3c(C)c(O)c4c(O)c(c(/C=N/N5CCN(C)CC5)c(O)c4c3C2=O)NC(=O)/C(C)=C\C=C\[C@H](C)[C@H](O)[C@@H](C)[C@@H](O)[C@@H](C)[C@H](OC(C)=O)[C@@H]1C` please
4 µg/mL

Also CC1COc2c(N3CCN(C)CC3)c(F)cc3c(=O)c(C(=O)O)cn1c23 (stereo not given) , if possible.
0.5 µg/mL

What about this molecule? `NC[C@H]1O[C@H](O[C@H]2[C@H](O)[C@@H](O[C@H]3O[C@H](CO)[C@@H](O)[C@H](N)[C@H]3O)[C@H](N)C[C@@H]2N)[C@H](O)[C@@H](O)[C@@H]1O`
2 µg/mL

Record: `c1ccc(-c2ccc(-c3ccnc(CN4CCC5(CCCC5)CC4)c3)cc2)cc1`
0.063 µg/mL
